In this section, each of the compounds is paired with its reported logP.
Assay: logP determination by HPLC on a reversed-phase column (C 18), EEC Directive 79/831 Annex V.A8
Type: physicochemical
Details: method marked [b] in Table 1
observation_type: logP

# compound, observation_type, recorded_result
rows = [
    ("C(=NOCCCON=Cc1ccccn1)c1ccccn1", "logP", "1.97^[b]"),
    ("CC(=NOCc1cccc(CON=C(C)c2cccc(C)n2)c1)c1cccc(C)n1", "logP", "4.17^[b]"),
    ("CCCC(=NOCC1(CON=C(CCC)c2cccc(C)n2)CC(C)=NO1)c1cccc(C)n1 (stereo not drawn)", "logP", "4.56^[b]"),
    ("CC(=NOCC(C)CON=C(C)c1cccc(C(=O)c2ccccc2)n1)c1cccc(C)n1 (stereo not drawn)", "logP", "5.75^[b]"),
    ("CC(=NOCCCCCCON=C(C)c1sc(C)nc1C)c1cccc(C)n1 (single isomer, unassigned) [compound 543]", "logP", "4.74^[b] (isomer B)"),
    ("CCC(CC)(C(=O)ON=C(C)c1ccc(C)c(C)n1)C(=O)ON=C(C)c1ccc(C)c(C)n1", "logP", "5.06^[b]"),
    ("CC(=NOCC1(CON=C(C)c2ccc(C)c(C)n2)CCCC1)c1ccc(C)c(C)n1", "logP", "4.92^[b]"),
    ("CC(=NOCc1ccc(CON=C(C)c2ccccn2)cc1)c1ccccn1", "logP", "3.76^[b]"),
    ("CC(=NOCC(CON=C(C)c1nc(C)ccc1C)C(C)(C)C)c1nc(C)ccc1C (single isomer, unassigned) [compound 756]", "logP", "3.22^[b]"),
    ("Cc1nc(/C(N)=N/OC/C=C/CO/N=C(\\N)c2nc(C)c3c(n2)CCCC3)nc2c1CCCC2", "logP", "2.51^[b]"),
    ("CC(=NOCC(O)CON=C(C)c1cc(C)cc(C)n1)c1cc(C)cc(C)n1 (stereo not drawn)", "logP", "1.22[b]"),
    ("CC(=NOCC(CON=C(C)c1cc(C)cc(C)n1)C(C)(C)C)c1cc(C)cc(C)n1 (stereo not drawn)", "logP", "3.60^[b]"),
    ("C=C(CON=Cc1cccc(C)n1)CON=Cc1cccc(C)n1 (single isomer, unassigned) [compound 664]", "logP", "2.13^[b] (isomer A)"),
    ("N/C(=N\\OC/C=C/CO/N=C(\\N)c1ncc(F)cc1F)c1ncc(F)cc1F", "logP", "2.42^[b]"),
    ("CC(=NOCc1cccc(CON=C(C)c2cccc(C)n2)n1)c1cccc(C)n1", "logP", "2.49^[b]"),
    ("CC(=NOCC(CON=C(C)c1nc(C)ccc1C)Cc1ccccc1)c1cccc(C)n1 (stereo not drawn)", "logP", "3.40^[b]"),
    ("Cc1cccc(C=NOCCCON=Cc2cccc(C)n2)n1", "logP", "2.54^[b]"),
    ("C=C(CON=C(Br)c1cccc(C)n1)CON=C(Br)c1cccc(C)n1", "logP", "4.41^[b]"),
    ("CC(=NOCC1(CON=C(C)c2cc(C)cc(C)n2)CC(C(C)C)=NO1)c1cc(C)cc(C)n1 (stereo not drawn)", "logP", "2.18^[b]"),
    ("C/C(=N\\OCC1(CO/N=C(\\C)c2ccc(C)c(C)n2)CC(c2cccc(Cl)c2)=NO1)c1ccc(C)c(C)n1", "logP", "4.51^[b]"),
    ("CC(=NOCCCCCCON=C(C)c1nc(C)c(C)s1)c1cccc(C)n1 (single isomer, unassigned)", "logP", "4.86^[b] v(isomer B)"),
]

---

Assay: logP determination by HPLC on a reversed-phase column (C 18), EEC Directive 79/831 Annex V.A8
Type: physicochemical
Details: value marked [b]
Below is a list of entries, each paired with its recorded logP value.

# molecule, logP
measured = [
    ("Cc1cc(C)nc(C(N)=NOC/C=C/CON=C(N)c2cc(C)cc(C)n2)c1 (single isomer, unassigned) [compound 771]", "2.70^[b] (isomer A)"),
    ("C/C(=N\\OCC(C)(C)CO/N=C(\\C)c1cncc(C)n1)c1cccc(C)n1", "4.41^[b]"),
    ("CC(=NOCC(C)CON=C(C)c1csc(C)n1)c1csc(C)n1 (centres unmarked)", "3.52^[b]"),
    ("CC(=NOCC(C)(C)CON=C(C)c1nccc(C)n1)c1cccc(C)n1", "3.02^[b]"),
    ("C=CCOC(C)(CON=C(C)c1cccc(C)n1)C(C)ON=C(C)c1cccc(C)n1 (centres unmarked)", "6.13^[b]"),
    ("C=C(CON=C(C)c1ccc2ccccc2c1)CON=C(C)c1cccc(C)n1", "5.48^[b]"),
    ("CCOC(=O)C(C)(CON=C(C)c1cccc(C)n1)CON=C(C)c1cccc(C)n1 (centres unmarked)", "4.06^[b]"),
    ("CC(=NOCC(C)CON=C(C)c1cccc(Cc2ccccc2)n1)c1cccc(C)n1 (centres unmarked)", "6.09^[b]"),
]

---

Experiment: logP determination by HPLC on a reversed-phase column (C 18), EEC Directive 79/831 Annex V.A8
Type: physicochemical
Details: method marker [b]; isomer A / isomer B / isomer mixture as noted in the cell
observation_type: logP

# compound, recorded_result
records = [
    ("C=C(CON=C(C)c1cccc(C)n1)CON=C(N)c1ncc(F)cc1F [compound 242]", "2.48^[b)"),
    ("CC(=NOCC(C)CON=C(C)c1nc2ccccc2s1)c1nc2ccccc2s1 (centres unmarked) [Compound 213]", "6.71^[b]"),
    ("C=C(CON=C(C)c1cccc(C)n1)CON=C(C)c1nc(C)cc(C)n1 [Compound 188]", "2.69^[b]"),
    ("C=C(CON=C(C)c1cccc(C)n1)CON=C(C)c1cccnc1Cl [compound 147]", "3.34^[b]"),
    ("C=C(CON=C(C)c1cccc(C)n1)CON=C(N)c1nc(C)c(Cl)c(C)n1 [compound 184]", "2.61^[b]"),
    ("C=C(CON=C(C)c1cccc(C)n1)CON=C(C)c1ncc(C(F)(F)F)cc1Cl (single isomer, unassigned) [compound 135]", "4.95^[b] (isomer B)"),
    ("C=C(CON=C(C)c1cccc(C)n1)CON=C(C)c1ccc(Cl)s1 (single isomer, unassigned) [compound 195]", "4.82^[b] (isomer A)"),
    ("C=C(CON=C(C)c1ccc(Br)nc1)CON=C(C)c1ccc(Br)nc1 [compound 151]", "4.56^[b]"),
    ("C=C(CON=C(C)c1cccc(C)n1)CON=C(C)c1ccc2ccccc2n1 [Compound 202]", "5.25^[b]"),
    ("Cc1cc(C)nc(/C(N)=N/OCO/N=C(\\N)c2nc(C)cc(C)n2)n1 [compound 5]", "1.49^[b]"),
    ("C=C(CON=C(C)c1cccc(C)n1)CON=C(C)c1nccc(OCC)n1 [compound 249]", "3.17^[b]"),
    ("CC(=NOCCCCCCCON=C(C)c1cccc(C)n1)c1cccc(C)n1 [Compound 217]", "5.37^[b]"),
    ("C=C(CON=C(C)c1ccc(C)nc1)CON=C(C)c1ccc(C)nc1 [compound 22]", "1.37^[b]"),
    ("C=C(CON=C(C)c1cccc(C)n1)CON=C(N)c1nc(C)cc(C)n1 [compound 192]", "1.97^[b]"),
    ("C=C(CON=C(C)c1cccc(C)n1)CON=C(N)c1nc(C)c2c(n1)CCCC2 [Compound 182]", "2.55^[b]"),
    ("COCc1nc(/C(N)=N/OCO/N=C(\\N)c2nc(COC)c(C)c(COC)n2)nc(COC)c1C [compound 40]", "1.35^[b]"),
    ("Cc1cc(C)nc(C(N)=NOCCCCON=C(N)c2cc(C)cc(C)n2)c1 [compound 123]", "2.67^[b]"),
]

---

Assay: logP determination by HPLC on a reversed-phase column (C 18), EEC Directive 79/831 Annex V.A8
Assay type: physicochemical
Settings: [c] LC-MS, neutral range, pH 7.8, 0.001 molar aqueous ammonium bicarbonate solution and acetonitrile
Recorded logP values for a group of compounds are listed next.

# compound, logP
records = [
    ("C/C(=N\\OCC(C)CON)c1ccc(C)c(C)n1 (racemic)", "2.49^[c]"),
    ("C/C(=N\\OCCCON)c1cccc(C)n1", "1.72^[c]"),
    ("C/C(=N\\OCC1(CON)CC1)c1cccc(C)n1", "2.11^[c]"),
    ("C/C(=N\\OCC1(CON)CC1)c1cc(C)cc(C)n1", "2.42^[c]"),
    ("C/C(=N\\OCC(C)(C)CON)c1cc(C)cc(C)n1", "2.89^[c]"),
    ("C/C(=N\\OCC(C)CON)c1cccc(C)n1 (racemic)", "2.15^[c]"),
    ("C/C(=N\\OCC(C)(C)CON)c1ccc(C)c(C)n1", "2.94^[c]"),
    ("C/C(=N\\OCC(C)CON)c1cc(C(F)(F)F)cc(C)n1 (racemic)", "3.38^[c]"),
    ("C/C(=N\\OCC(C)(C)CON)c1cc(C(F)(F)F)cc(C)n1", "3.92^[c]"),
    ("C/C(=N\\OCC(C)CON)c1cccc(-c2cccc(C)n2)n1 (racemic)", "3.36^[c]"),
]
